Assay procedure: Plasma pharmacokinetics of SHR9146 in mice (LC-MS/MS, non-compartmental analysis)
Type: in vivo, ICR mice
Setup conditions: female, ICR, mouse, plasma, po, 80 mg/kg, 80 mg/kg i.g. single dose; female mice
Assay metric: AUC(0-inf)
Just so you know, I need the unit written after the number.

Prompt: Please indicate AUC(0-inf) recorded for OCCn1cc(-c2ccc(N3CCC([C@H]4c5c(F)cccc5-c5cncn54)CC3)cc2)cn1 [SHR9146]
Completion: 65900 ng·h/mL

====

Assay procedure: Plasma pharmacokinetics of SHR9146 in mice (LC-MS/MS, non-compartmental analysis)
Assay type: in vivo, ICR mice
Setup conditions: both sexes, ICR, mouse, plasma, intravenous, 5 mg/kg, 5 mg/kg i.v.; 0.083 h; read-out: plasma drug concentration, individual mice #1-#6
Experimental: ICR mice with body weight 16–26 g were supplied by Shanghai Lingchang Biotechnology Co., Ltd. (animal breeding license number SCXK (Shanghai) 2013-0018) and housed at Shanghai Institute of Materia Medica, Chinese Academy of Sciences [animal use license number SYXK (Shanghai) 2015-0027]. The mice used in this study were fasted overnight for 12 h but had free access to water. Food was supplied 4 h post-dose. […]
Assay metric: concentration at 0.083 h (ng/mL)
Field: numeric (ng/mL). Do not append units.

Prompt: Please indicate concentration at 0.083 h recorded for OCCn1cc(-c2ccc(N3CCC([C@H]4c5c(F)cccc5-c5cncn54)CC3)cc2)cn1
Completion: 7880
